FYI, the data here is from patent US20130130912A1.

experiment: solubility of pesticide actives in dialkyl carbonate solvents (CIPAC method MT181); format: physicochemical; conditions: di-n-pentyl carbonate solvent, 20 deg C.
Can you tell me solubility in di-n-pentyl carbonate solvent for the items I'm about to list?

Task: Can you look up the measured solubility in di-n-pentyl carbonate solvent of Fc1ccc([C@]2(Cn3cncn3)O[C@H]2c2ccccc2Cl)cc1 (racemic) [Epoxiconazole] for me?
Output: 20-25 grams/litre

Task: Can you look up the measured solubility in di-n-pentyl carbonate solvent of CCCN(CCC)c1c([N+](=O)[O-])cc(C(F)(F)F)cc1[N+](=O)[O-] [Trifluralin] for me?
Output: >250 grams/litre

Task: Can you look up the measured solubility in di-n-pentyl carbonate solvent of CCc1cccc(C)c1N(C(=O)CCl)C(C)COC (centres unmarked) [Metolachlor] for me?
Output: >200 grams/litre

Task: Can you look up the measured solubility in di-n-pentyl carbonate solvent of CC(C)(C)C(O)(CCc1ccc(Cl)cc1)Cn1cncn1 (centres unmarked) [Tebuconazole] for me?
Output: 33-40 grams/litre

Task: Can you look up the measured solubility in di-n-pentyl carbonate solvent of CCNc1nc(NC(C)C)nc(SC)n1 [Ametryn] for me?
Output: 120 grams/litre

Task: Can you look up the measured solubility in di-n-pentyl carbonate solvent of CC(C)(C)C(O)C(Oc1ccc(Cl)cc1)n1cncn1 (centres unmarked) [Triadimenol] for me?
Output: 20-25 grams/litre

Task: Can you look up the measured solubility in di-n-pentyl carbonate solvent of CCC(CC)Nc1c([N+](=O)[O-])cc(C)c(C)c1[N+](=O)[O-] [Pendimethalin] for me?
Output: >100 grams/litre

Task: Can you look up the measured solubility in di-n-pentyl carbonate solvent of O=C(Nc1ccc(F)cc1F)c1cccnc1Oc1cccc(C(F)(F)F)c1 [Diflufenican] for me?
Output: 14-20 grams/litre

----------
assay: solubility of pesticide actives in dialkyl carbonate solvents (CIPAC method MT181); format: physicochemical; details: Bis-(2-ethylhexyl) carbonate solvent (comparative), 20 deg C.
endpoint: solubility in Bis-(2-ethylhexyl) carbonate solvent

Task: Can you look up the measured solubility in Bis-(2-ethylhexyl) carbonate solvent of CCC(CC)Nc1c([N+](=O)[O-])cc(C)c(C)c1[N+](=O)[O-] [Pendimethalin] for me?
Output: 80-100 grams/litre

Task: Can you look up the measured solubility in Bis-(2-ethylhexyl) carbonate solvent of CC(C)(C)C(O)C(Oc1ccc(Cl)cc1)n1cncn1 (centres unmarked) [Triadimenol] for me?
Output: <10 grams/litre

Task: Can you look up the measured solubility in Bis-(2-ethylhexyl) carbonate solvent of CCc1cccc(C)c1N(C(=O)CCl)C(C)COC (centres unmarked) [Metolachlor] for me?
Output: >200 grams/litre

Task: Can you look up the measured solubility in Bis-(2-ethylhexyl) carbonate solvent of CCNc1nc(NC(C)C)nc(SC)n1 [Ametryn] for me?
Output: 80-100 grams/litre

Task: Can you look up the measured solubility in Bis-(2-ethylhexyl) carbonate solvent of O=C(Nc1ccc(F)cc1F)c1cccnc1Oc1cccc(C(F)(F)F)c1 [Diflufenican] for me?
Output: <10 grams/litre

Task: Can you look up the measured solubility in Bis-(2-ethylhexyl) carbonate solvent of CCCN(CCC)c1c([N+](=O)[O-])cc(C(F)(F)F)cc1[N+](=O)[O-] [Trifluralin] for me?
Output: 80-100 grams/litre

Task: Can you look up the measured solubility in Bis-(2-ethylhexyl) carbonate solvent of Fc1ccc([C@]2(Cn3cncn3)O[C@H]2c2ccccc2Cl)cc1 (racemic) [Epoxiconazole] for me?
Output: <10 grams/litre

Task: Can you look up the measured solubility in Bis-(2-ethylhexyl) carbonate solvent of CC(C)(C)C(O)(CCc1ccc(Cl)cc1)Cn1cncn1 (centres unmarked) [Tebuconazole] for me?
Output: <10 grams/litre

----------
assay: solubility of pesticide actives in dialkyl carbonate solvents (CIPAC method MT181); format: physicochemical; settings: di-n-butylcarbonate (DNBC) solvent, 20 deg C.
endpoint: SOLUBILITY OF PESTICIDE ACTIVES IN di-n-butylcarbonate (DNBC) SOLVENT

Task: Can you look up the measured SOLUBILITY OF PESTICIDE ACTIVES IN di-n-butylcarbonate (DNBC) SOLVENT of CCCN(CCC)c1c([N+](=O)[O-])cc(C(F)(F)F)cc1[N+](=O)[O-] [Trifluralin] for me?
Output: >600 grams/litre

Task: Can you look up the measured SOLUBILITY OF PESTICIDE ACTIVES IN di-n-butylcarbonate (DNBC) SOLVENT of O=C(Nc1ccc(F)cc1F)c1cccnc1Oc1cccc(C(F)(F)F)c1 [Diflufenican] for me?
Output: <50 grams/litre

Task: Can you look up the measured SOLUBILITY OF PESTICIDE ACTIVES IN di-n-butylcarbonate (DNBC) SOLVENT of CCc1cccc(C)c1N(C(=O)CCl)C(C)COC (stereo not shown) [Metolachlor] for me?
Output: >600 grams/litre

Task: Can you look up the measured SOLUBILITY OF PESTICIDE ACTIVES IN di-n-butylcarbonate (DNBC) SOLVENT of CCC(CC)Nc1c([N+](=O)[O-])cc(C)c(C)c1[N+](=O)[O-] [Pendimethalin] for me?
Output: >300 grams/litre
